# target.entity: human nSMase2 (Homo sapiens)
# experiment.summary: 14C-SM confirmatory direct activity assay
# Format: biochemical
# Parameters: Full length human nSMase2 cDNA with a C-terminal Flag tag; host or cells: HEK293, stably transfected; crude cell lysate used as enzyme
# experimental.parameters: [14C]-SM direct activity assay, human recombinant enzyme
# Description: This assay was dependent on the direct hydrolysis of ^14C-labeled SM (^14C N-methyl groups in the phosphorylcholine) by human nSMase2. Optimization of assay conditions was accomplished according to the methods of Barbone et al.. […] An aliquot (50 μl) of the upper phase was transferred to a vial with 10 ml of scintillant and counted for 2 min on a Beckman LS-6000IC scintillation counter. […]
Measured IC50 values are reported for all entries that follow.
Output spec: scalar in µM, unitless text.

O=c1[nH]c(=S)[nH]c(-c2cccc(Cl)c2)c1Cc1c(O)ccc2ccccc12: 7

INPUT: Look up IC50 of `O=c1[nH]c(=S)[nH]c(-c2ccc(Br)cc2)c1Cc1c(O)ccc2ccccc12` and report it.
OUTPUT: 2

INPUT: Look up IC50 of `Cc1ccccc1-c1[nH]c(=S)[nH]c(=O)c1Cc1c(O)ccc2ccccc12` and report it.
OUTPUT: 3

INPUT: Look up IC50 of `O=c1[nH]c(=S)[nH]c(-c2ccccc2F)c1Cc1c(O)ccc2ccccc12` and report it.
OUTPUT: 6

###

# target.entity: rat nSMase2 (Rattus norvegicus, UniProt O35049)
# Sequence (O35049 1-655): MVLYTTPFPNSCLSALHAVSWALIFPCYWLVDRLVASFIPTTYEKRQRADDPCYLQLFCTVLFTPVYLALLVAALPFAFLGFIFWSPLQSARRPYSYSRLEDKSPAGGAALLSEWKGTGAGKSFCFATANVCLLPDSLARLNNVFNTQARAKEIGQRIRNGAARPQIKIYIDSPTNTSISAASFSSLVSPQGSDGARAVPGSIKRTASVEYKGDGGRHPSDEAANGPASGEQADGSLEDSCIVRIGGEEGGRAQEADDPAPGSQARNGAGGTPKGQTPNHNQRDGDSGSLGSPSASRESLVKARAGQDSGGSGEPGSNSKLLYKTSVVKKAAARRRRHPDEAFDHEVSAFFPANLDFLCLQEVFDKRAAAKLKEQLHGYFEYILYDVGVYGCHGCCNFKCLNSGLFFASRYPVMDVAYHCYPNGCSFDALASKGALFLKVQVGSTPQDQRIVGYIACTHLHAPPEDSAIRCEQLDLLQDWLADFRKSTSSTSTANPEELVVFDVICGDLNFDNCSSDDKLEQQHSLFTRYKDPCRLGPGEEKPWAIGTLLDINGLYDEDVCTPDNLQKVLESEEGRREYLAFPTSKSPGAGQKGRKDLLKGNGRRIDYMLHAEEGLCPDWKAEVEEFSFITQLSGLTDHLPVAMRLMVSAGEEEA
readout.label: pIC50
# pIC50 is unitless: minus log10 of the molar concentration; print number only

INPUT: Look up pIC50 of `O=c1[nH]c(=S)[nH]c(-c2ccccc2)c1Cc1c(O)ccc2ccccc12` and report it.
OUTPUT: 5.22

###

Measured pIC50 values are reported for all entries that follow.
# target.entity: UniProt:Q9NY59
# Sequence (Q9NY59 1-655): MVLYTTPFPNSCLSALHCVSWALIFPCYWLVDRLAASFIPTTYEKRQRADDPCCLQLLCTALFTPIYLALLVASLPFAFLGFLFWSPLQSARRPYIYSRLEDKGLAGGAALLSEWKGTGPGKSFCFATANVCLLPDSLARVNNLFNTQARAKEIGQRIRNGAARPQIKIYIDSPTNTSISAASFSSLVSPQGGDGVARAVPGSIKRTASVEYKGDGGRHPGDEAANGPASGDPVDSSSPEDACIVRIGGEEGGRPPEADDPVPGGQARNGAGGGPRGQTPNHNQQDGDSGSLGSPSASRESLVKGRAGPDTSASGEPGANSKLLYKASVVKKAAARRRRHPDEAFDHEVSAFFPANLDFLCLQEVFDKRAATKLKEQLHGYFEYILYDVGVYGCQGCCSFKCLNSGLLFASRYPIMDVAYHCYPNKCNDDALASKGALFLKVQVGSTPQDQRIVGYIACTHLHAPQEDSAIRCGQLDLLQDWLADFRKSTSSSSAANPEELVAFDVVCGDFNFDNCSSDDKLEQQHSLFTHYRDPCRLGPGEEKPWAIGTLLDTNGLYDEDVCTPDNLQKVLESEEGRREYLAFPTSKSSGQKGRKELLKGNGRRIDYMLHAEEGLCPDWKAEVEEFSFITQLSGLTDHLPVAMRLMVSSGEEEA
# experiment.summary: 14C-SM confirmatory direct activity assay
# Assay type: biochemical
# Set-up: Full length human nSMase2 cDNA with a C-terminal Flag tag; host or cells: HEK293, stably transfected; crude cell lysate used as enzyme
# experimental.parameters: [14C]-SM direct activity assay, human recombinant enzyme
pIC50: −log10 of the molar value.

INPUT: Look up pIC50 of `O=c1cc(-c2ccccc2)[nH]c(=S)[nH]1` and report it.
OUTPUT: < 4.30

INPUT: Look up pIC50 of `CCCCn1c(-c2ccccc2)c(Cc2c(O)ccc3ccccc23)c(=O)[nH]c1=S` and report it.
OUTPUT: < 4.00

INPUT: Look up pIC50 of `O=c1nc(SCc2ccccc2)[nH]c(-c2ccccc2)c1Cc1c(O)ccc2ccccc12` and report it.
OUTPUT: < 4.30

INPUT: Look up pIC50 of `O=c1[nH]c(-c2ccccc2)c(Cc2c(O)ccc3ccccc23)c(=O)[nH]1` and report it.
OUTPUT: < 4.00

Just for reference, paper PMC4444023 is where these values come from.
